Where do these numbers come from? They come from patent US11873291B2.

molecular target: recombinant human cGAS (aa147-522) (Homo sapiens); construct: recombinant human cGAS (aa147-522); His6-SUMO (cleaved yes); made in house; host or cells: E. coli BL21/pLys; assay: In vitro inhibition assay of cGAS activity (ATP consumption, KinaseGlo Max); assay type: biochemical; settings: Table 3, read-out: cGAS Inhibition Results IC50
pIC50: −log10 of the molar value.
Measured pIC50 of individual entries

QUERY: Look up pIC50: O=C(O)CCOCC1CCCCCN1c1cc(-n2ccnc2)c2ccc(Cl)c(Cl)c2n1 (centres unmarked)
RESULT: > 5.70

----------
Measured IC50 of individual entries
molecular target: recombinant human cGAS (aa147-522) (Homo sapiens); construct: recombinant human cGAS (aa147-522); His6-SUMO (cleaved yes); made in house; host or cells: E. coli BL21/pLys; test: In vitro inhibition assay of cGAS activity (ATP consumption, KinaseGlo Max); type: biochemical; conditions: Table 2, read-out: cGAS Inhibition Results IC50

For orientation, consider the following solved cases.
{"cpdSmiles": "OCc1cn(-c2cc(-c3ccccc3)nc3cc(Cl)ccc23)cn1", "IC50": "> 30 µM"}
{"cpdSmiles": "CS(=O)(=O)Nc1cccc(-c2cc(-n3ccnc3)c3ccc(Cl)cc3n2)c1", "IC50": "2 to 30 µM"}

QUERY: Look up IC50: "CN(CCNS(=O)(=O)c1cccnc1)c1cc(-n2ccnc2)c2ccc(Cl)cc2n1"
RESULT: 2 to 30 µM

----------
target: recombinant human cGAS (aa147-522) (Homo sapiens, UniProt Q8N884); construct: recombinant human cGAS (aa147-522); His6-SUMO (cleaved yes); made in house; host or cells: E. coli BL21/pLys; assay: In vitro inhibition assay of cGAS activity (ATP consumption, KinaseGlo Max); type: biochemical; conditions: Table 2, read-out: cGAS Inhibition Results IC50
Sequence (Q8N884 147-522): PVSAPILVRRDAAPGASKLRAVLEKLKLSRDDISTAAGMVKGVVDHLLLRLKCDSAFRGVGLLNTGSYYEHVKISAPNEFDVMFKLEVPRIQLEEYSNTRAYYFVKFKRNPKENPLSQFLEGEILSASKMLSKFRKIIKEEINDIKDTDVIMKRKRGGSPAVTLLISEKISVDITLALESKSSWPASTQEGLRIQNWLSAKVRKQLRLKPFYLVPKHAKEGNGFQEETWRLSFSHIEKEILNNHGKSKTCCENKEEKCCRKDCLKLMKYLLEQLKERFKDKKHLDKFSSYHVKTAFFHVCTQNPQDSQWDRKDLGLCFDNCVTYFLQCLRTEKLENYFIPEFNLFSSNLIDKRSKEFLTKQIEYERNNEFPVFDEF
pIC50: −log10 of the molar value.
Measured pIC50 of individual entries

For orientation, consider the following solved cases.
{"molecule": "CS(=O)(=O)N[C@@H]1C[C@@H](C(=O)O)N(c2cc(-n3ccnc3)c3ccc(Cl)c(Cl)c3n2)C1 [I-351]", "pIC50": "> 5.70"}
{"molecule": "O=C(C[C@@H]1CCCN1c1cc(-c2cn[nH]c2)c2ccc(Cl)c(Cl)c2n1)N1CCC[C@H]1CO [I-454]", "pIC50": "> 5.70"}
{"molecule": "Cc1cc(NC2CCCCC2C(=O)O)c2ccc(Cl)c(Cl)c2n1 (stereo not shown) [I-316]", "pIC50": "< 4.52"}
{"molecule": "O=C(O)[C@@H]1CCCN1c1cc(-n2ccnc2)c2ccc(Cl)c(Cl)c2n1 [I-428]", "pIC50": "> 5.70"}
{"molecule": "C[C@H](Nc1cc(-c2cn[nH]c2)nc2c(Cl)c(Cl)ccc12)C(=O)O [I-285]", "pIC50": "> 5.70"}

QUERY: Look up pIC50: O=C(O)c1ccccc1S(=O)(=O)NC[C@@H]1CCCN1c1cc(-n2ccnc2)c2ccc(Cl)c(Cl)c2n1 [I-391]
RESULT: > 5.70

QUERY: Field entry: Clc1cccc2c(-n3ccnc3)ccnc12 [I-408, 8-chloro-4-(1H-imidazol-1-yl)quinoline]
RESULT: < 4.52
